target: RSV F protein of RS virus subtype A strains (A2, X and 2006-1); assay: cell-based or functional assay
RECORDED_ENDPOINT: IC50 values (ng/ml), RS virus neutralization, Vero cells, subtype A (ng/mL)

binder="recombinant purified D25 (rD25), expressed in 293T cells (antibody, V domains shown) VH: QVQLVQSGAEVKKPGSSVMVSCQASGGPLRNYIINWLRQAPGQGPEWMGGIIPVLGTVHYAPKFQGRVTITADESTDTAYIHLISLRSEDTAMYYCATETALVVSTTYLPHYFDNWGQGTLVTVSS VL: DIQMTQSPSSLSAAVGDRVTITCQASQDIVNYLNWYQQKPGKAPKLLIYVASNLETGVPSRFSGSGSGTDFSLTISSLQPEDVATYYCQQYDNLPLTFGGGTKVEIKRTV" measured=1.6
binder="AM14 (antibody, V domains shown) VH: EVQLVESGGGVVQPGRSLRLSCAASGFSFSHYAMHWVRQAPGKGLEWVAVISYDGENTYYADSVKGRFSISRDNSKNTVSLQMNSLRPEDTALYYCARDRIVDDYYYYGMDVWGQGATVTVSS VL: DIQMTQSPSSLSASVGDRVTITCQASQDIKKYLNWYHQKPGKVPELLMHDASNLETGVPSRFSGRGSGTDFTLTISSLQPEDIGTYYCQQYDNLPPLTFGGGTKVEIKRTV" measured=15.2
binder="AM16 (antibody, V domains shown) VH: EVQLVETGGGLAQPGGSLRLSCAASGFTFSSYNMNWVRQAPGKGLEWVSHISAGSSYIYYSDSVKGRFTVSRDNVRNSVYLQMNSLRAADTAVYYCAREDYGPGNYYSPNWFDPWGQGTLVTVSS VL: QSVVTQPPSVSGAPGQRVTISCTGSSSNIGAGYDVHWYQQLPGTAPKLLIYGNTNRPSGVSDRFSGSKSGTSASLAITGLQAEDEADYYCHSYDRSLSGSVFGGGTKLTV" measured=304
binder="D25 (B63D10-D25), monoclonal antibody from the B cell line (culture supernatant or purified from it) (antibody, V domains shown) VH: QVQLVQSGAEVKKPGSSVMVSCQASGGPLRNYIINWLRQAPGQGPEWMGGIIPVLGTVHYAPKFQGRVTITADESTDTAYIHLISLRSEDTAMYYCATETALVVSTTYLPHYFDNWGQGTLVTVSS VL: DIQMTQSPSSLSAAVGDRVTITCQASQDIVNYLNWYQQKPGKAPKLLIYVASNLETGVPSRFSGSGSGTDFSLTISSLQPEDVATYYCQQYDNLPLTFGGGTKVEIKRTV" measured=3.4
binder="AM23 (antibody, V domains shown) VH: EVQLVESGGNVVKPGTSLRLSCAATGFNFHNYGMNWVRQAPGKGLEWVAVVWYDGSKKYYADSVTGRFAISRDNSKNTLYLQMNSLRVEDTAVYYCVRDKVGPTPYFDSWGQGTLVTVSS VL: SYVLTQPPSVSLAPGGTAAITCGRNNIGSETVHWYQQKPGQAPVLVVYDDDDRPSGIPERFSGSNSGNTATLTISRVEAGDEADYYCQVWDRSNYHQVFGGGTKLTV" measured=19.4
